- Measured On: CK1δ (Homo sapiens, UniProt P48730)
- Sequence (P48730 whole entry): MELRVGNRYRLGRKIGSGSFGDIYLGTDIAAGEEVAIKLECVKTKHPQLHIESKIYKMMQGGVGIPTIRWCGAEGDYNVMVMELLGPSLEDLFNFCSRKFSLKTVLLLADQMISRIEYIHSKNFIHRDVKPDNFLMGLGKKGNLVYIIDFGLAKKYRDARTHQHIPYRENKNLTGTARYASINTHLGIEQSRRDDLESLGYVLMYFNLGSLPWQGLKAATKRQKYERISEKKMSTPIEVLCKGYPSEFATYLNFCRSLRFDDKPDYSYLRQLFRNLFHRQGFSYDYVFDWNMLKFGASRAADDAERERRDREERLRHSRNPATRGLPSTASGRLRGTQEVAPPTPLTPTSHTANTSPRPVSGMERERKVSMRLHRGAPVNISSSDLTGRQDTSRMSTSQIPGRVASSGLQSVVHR
- Procedure Text: In-house kinase inhibition assay, CK1δ
- Format: biochemical
- Details: read-out: CK1σ IC50
- Description: [drawing 21] wherein the substituents W, X, Y, Z, and R^1, are as specified in the respective Table columns.

>  <Structure>
COc1cc2nc(CNc3nc(N4CCOCC4)nc4c3ncn4-c3cnn(C)c3)[nH]c2cc1Cl

>  <Measure Unit>
µM

>  <IC50>
7.73

$$$$

---

# CYP inhibition 1A2 per record follows
- Measured On: CYP 1A2 (Homo sapiens)
- Sequence (P05177 1-516): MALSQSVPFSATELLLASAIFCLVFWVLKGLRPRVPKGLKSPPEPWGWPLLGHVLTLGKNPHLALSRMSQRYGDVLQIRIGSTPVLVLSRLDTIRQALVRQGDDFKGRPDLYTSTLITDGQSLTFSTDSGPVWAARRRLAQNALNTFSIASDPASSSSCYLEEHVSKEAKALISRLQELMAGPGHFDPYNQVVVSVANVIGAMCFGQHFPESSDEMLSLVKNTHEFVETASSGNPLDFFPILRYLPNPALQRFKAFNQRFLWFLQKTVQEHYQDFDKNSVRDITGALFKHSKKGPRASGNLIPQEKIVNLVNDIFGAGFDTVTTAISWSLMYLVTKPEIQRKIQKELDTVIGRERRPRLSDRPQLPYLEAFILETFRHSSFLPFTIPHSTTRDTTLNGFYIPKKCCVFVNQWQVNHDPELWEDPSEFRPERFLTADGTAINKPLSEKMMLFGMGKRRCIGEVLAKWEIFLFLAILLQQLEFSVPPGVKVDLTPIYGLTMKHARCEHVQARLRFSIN
- Procedure Text: Cytochrome P450 inhibition assay, 1A2
- Type: in vitro ADME

>  <Compound>
Cn1cc(-n2cnc3c(NCc4nc5cc(F)c(F)cc5[nH]4)nc(N4CCOCC4)nc32)cn1 [Compound 2]

>  <Measure Unit>
% inh

>  <CYP inhibition 1A2>
5

$$$$
>  <Compound>
Cn1cc(-n2cnc3c(NCc4nc5cc(Cl)c(Cl)cc5[nH]4)nc(N4CCOCC4)nc32)cn1 [Compound 5]

>  <Measure Unit>
% inh

>  <CYP inhibition 1A2>
50

$$$$
>  <Compound>
Cn1cc(-n2cnc3c(NCc4nc5cc(Cl)c(Cl)cc5[nH]4)nc(N4CCOC[C@H]4CO)nc32)cn1 [Compound 7]

>  <Measure Unit>
% inh

>  <CYP inhibition 1A2>
39

$$$$
>  <Compound>
Cn1cc(-n2cnc3c(NCc4nc5cc(Cl)c(Cl)cc5[nH]4)nc(N4CCOC[C@@H]4CO)nc32)cn1 [Compound 6]

>  <Measure Unit>
% inh

>  <CYP inhibition 1A2>
42

$$$$

---

- Procedure Text: Microsome stability, mouse liver microsomes
- Type: in vitro ADME
- Details: read-out: Microsome stability t1/2
Lab note: anything with half-life at or over 10 min counts as YES; the rest go in NO.

>  <Molecule>
Cc1cc(-n2cnc3c(NCc4nc5c(F)c(F)ccc5[nH]4)nc(N4CCOCC4)nc32)no1 [Compound 3]

>  <Label Class>
NO

$$$$
>  <Molecule>
Cn1cc(-n2cnc3c(NCc4nc5cc(F)c(F)cc5[nH]4)nc(N4CCOCC4)nc32)cn1 [Compound 2]

>  <Label Class>
YES

$$$$
>  <Molecule>
Cn1cc(-n2cnc3c(NCc4nc5cc(Cl)c(Cl)cc5[nH]4)nc(N4CCOCC4)nc32)cn1 [Compound 5]

>  <Label Class>
YES

$$$$
>  <Molecule>
Cn1cc(-n2cnc3c(NCc4nc5c(F)c(F)ccc5[nH]4)nc(N4CCOCC4)nc32)cn1 [Compound 1]

>  <Label Class>
NO

$$$$
>  <Molecule>
Cn1cc(-n2cnc3c(NCc4nc5cc(Cl)c(Cl)cc5[nH]4)nc(N4CCOC[C@H]4CO)nc32)cn1 [Compound 7]

>  <Label Class>
YES

$$$$
>  <Molecule>
Fc1ccc2[nH]c(CNc3nc(N4CCOCC4)nc4c3ncn4-c3cscn3)nc2c1F [Compound 4]

>  <Label Class>
NO

$$$$
>  <Molecule>
Cn1cc(-n2cnc3c(NCc4nc5cc(Cl)c(Cl)cc5[nH]4)nc(N4CCOC[C@@H]4CO)nc32)cn1 [Compound 6]

>  <Label Class>
YES

$$$$
